System: SF-268 CNS
METHOD DESCRIPTION: NCI tumour cell line growth inhibition, 48 h; in the data active = GI50 below about 0.43 µM; inactive = the rest
Choose one outcome from this list and give only that: 1 (yes) for active, 0 (no) for inactive

MOLECULE	CLASS NAME
N#CSc1c[nH]c2ccc(/C=C/C(=O)/C=C(O)/C=C/c3ccc4[nH]cc(SC#N)c4c3)cc12	0 (no)
[Cu].c1ccc2c(c1)C1=NC2=NC2=NC(=NC3=NC(=NC4=NC(=N1)c1ccccc14)c1ccccc13)c1ccccc12	0 (no)
CCCCCOC(=O)c1c(C)[nH]c(/C=C2\N=C(c3ccc[nH]3)C=C2OC)c1C	1 (yes)

**Q:** How did this test come out for CCCN1CCC(Oc2cc(Nc3nc(Nc4cccc(F)c4C(N)=O)c4cc[nH]c4n3)c(OC)cc2Cl)CC1 ?
**A:** 0 (no)

**Q:** How did this test come out for COc1cccc2c1C(=O)c1c(O)c3c(c(O)c1C2=O)C[C@@](O)(/C(C)=N/NC(=O)c1cccc([N+](=O)[O-])c1)C[C@@H]3OC1CC(N)C(O)C(C)O1 (stereo not given in full) ?
**A:** 1 (yes)
